System: T-47D breast
Assay: NCI-60 one-dose screen, 48 h (100 = growth as untreated, 0 = no growth, -100 = all killed)
Settings: 10 µM
About 83,000 compounds went through this panel and 20% of them were active in at least one assay; those are over-represented in the sample as a whole. Active and inactive are the calls of the source. How the source made its calls: active means growth percent below 10; inactive means the rest.
Measured growth, listed per entry for reference.

Example compounds with recorded growth:
Problem: Give its growth value. Item: Cc1ccc(-n2c(C)nn3c(=O)c4c5c(sc4nc23)CN(C)CC5)cc1
Solution: 81.3% (inactive)

Problem: Value lookup for growth; key = NNC(=O)Oc1c(Cl)cc(Cl)cc1[N+](=O)[O-]
Solution: 98.5% (inactive)

Problem: What value of measured growth is listed for O=[N+]([O-])c1ccc2ncccc2c1Cl ?
Solution: 68.7% (inactive)

Others:
Problem: Entry CC[C@@H](C(=O)[C@@H](C)[C@@H](O)[C@H](C)[C@@H]1O[C@@H]([C@@H](CC)C(=O)O)CC[C@@H]1C)C1O[C@]2(C=CC(=O)[C@]3(CC[C@@](C)([C@H]4CC[C@](O)(CC)[C@H](C)O4)O3)O2)[C@H](C)C[C@@H]1C (stereo partly specified) : reported growth = ?
Solution: 26.1% (inactive)

Problem: Which growth value belongs to CCOC(=O)c1cc(C(=O)c2ccc(OC)c(OC)c2)n2c1ccc1ccc3cccnc3c12 ?
Solution: 47.5% (inactive)

====

Test system: CAKI-1 renal
Test: NCI-60 one-dose screen, 48 h (100 = growth as untreated, 0 = no growth, -100 = all killed)
Settings: 10 µM
About 83,000 compounds went through this panel and 20% of them were active in at least one assay; those are over-represented in the sample as a whole.
Measurement Type: growth (%)
Note: unit % is implicit; provide only the numeric part.

Example entries and their recorded answers appear below.
Problem: I would be grateful if you could share the reported growth for Nc1nc(-c2ccc(Cl)cc2)cc(-c2cc3ccccc3oc2=O)n1 .
Solution: 84.1

Problem: Find the recorded growth belonging to NS(=O)(=O)Oc1ccc(NC(=O)C2CCCCCC2)cc1 and report it.
Solution: 87.4

Problem: Given the entry CN(C)c1ncnc2c1nnn2C1OC(CO)C(O)C1O (stereo not drawn) , report its measured growth.
Solution: 7.19

Problem: Bench note: what growth did COc1cc(C2C(C#N)=C(N)Oc3cc(O)ccc32)cc(OC)c1OC (stereo not drawn) show?
Solution: 30.7

Continuing:
Problem: What value of measured growth is listed for Nc1cc(Br)c(-c2nn3c(CCC(=O)c4nc5ccccc5[nH]4)nnc3s2)c(Br)c1 ?
Solution: 95.4

Problem: What does the data say about its growth? Entry: O=[N+]([O-])c1ccc2ncccc2c1Cl
Solution: 32

Problem: Entry under review: CCn1c2ccc(O)cc2c2c(C)c3c[n+](C)ccc3c(C)c21 . Reported growth?
Solution: 85.2

Problem: // returns reported growth for input COc1ccc(NC(=O)C2CC3C=CC2C3)c([N+](=O)[O-])c1 (stereo not drawn)
Solution: 92.6

====

System: U251 CNS
Experiment: NCI-60 one-dose screen, 48 h (100 = growth as untreated, 0 = no growth, -100 = all killed)
Details: 10 µM
About 83,000 compounds went through this panel and 20% of them were active in at least one assay; those are over-represented in the sample as a whole.
Each entry gets Not satisfied if its growth stays under 50%, and Satisfied if its growth is 50% or above.

Problem: Identify whether the reported growth of the following molecule is 50% or greater: OC(CNc1ccnc2cc(Cl)ccc12)CNC1CCCCC1 (stereo unspecified)
Solution: Satisfied

Problem: Is it the case that CS(=O)(=O)c1nccc(-c2c(-c3ccc(OCCc4ccccc4)cc3)nc3sccn23)n1 has growth reaching or exceeding 50%?
Solution: Satisfied

Others:
Problem: Determine whether measured growth meets or exceeds 50% for Cc1cc(SCc2ccccc2)nc(N)n1
Solution: Satisfied

Problem: Please indicate if the recorded growth for Cc1ccc(NCCN(C)CC(C)O)c2c(=O)c3ccccc3sc12 (stereo unspecified) meets or exceeds 50%.
Solution: Not satisfied

====

Test system: M14 melanoma
Test: NCI-60 one-dose screen, 48 h (100 = growth as untreated, 0 = no growth, -100 = all killed)
Conditions: 10 µM
The panel holds about 83,000 compounds, 20% with a hit somewhere; the sample as a whole holds those more often.
Measurement Type: growth (%)
Reply numerically in %, unit not repeated.

# annotated cases, reported growth shown
Problem: # get_value(readout='growth', item= CCCCCCCCCCOC(c1ccccc1)c1ccccc1 )
Solution: 90.9

Problem: // returns reported growth for input O=S(=O)(O)c1cccc(Nc2ccc3ccccc3c2)c1
Solution: 92.7

Problem: Consider the compound CN(C)CCCOc1cccc(NC2=C(Cl)C(=O)C(Nc3cccc(OCCCN(C)C)c3)=C(Cl)C2=O)c1 and give its measured growth.
Solution: -75.6

---
Problem: Fill in: growth of CCOC(=O)c1cc(C(=O)c2cc(OC)cc(OC)c2)n2ncc3ccccc3c12 is ___
Solution: 15.7

Problem: Which growth reading was recorded for the compound N#Cc1cnn(C(=O)c2nn(-c3ccc(Cl)cc3)cc2O)c1N ?
Solution: 24.3

====

Test system: SN12C renal
Assay: NCI-60 one-dose screen, 48 h (100 = growth as untreated, 0 = no growth, -100 = all killed)
Conditions: 10 µM
This is part of a sample that, as a whole, favours compounds with a hit. Of some 83,000 tested, about 20% had one in any assay.
List of growth values.
Please reply with the bare figure in % and do not write the unit itself.

Problem: Which value of growth has been reported for CC(=O)COc1ccc(Cl)cc1Cl in the records?
Solution: 95.3

Problem: Please report the recorded growth for CCc1c2c(nc3ccc(OC(=O)N4CCC(N5CCCCC5)CC4)cc13)-c1cc3c(c(=O)n1C2)COC(=O)[C@]3(O)CC .
Solution: 16.2

Could you now look at the following molecule, please?
Problem: Could you share which growth value was measured for CN1CCN(c2cc3c(cc2F)c(=O)c(C(=O)O)cn3-c2ccc(F)cc2)CC1 ?
Solution: 97.3

====

System: SF-539 CNS
Assay: NCI-60 one-dose screen, 48 h
Conditions: 10 µM
This is part of a sample that, as a whole, favours compounds with a hit. Of some 83,000 tested, about 20% had one in any assay. Calls of active or inactive are those of the source. The calls were made as follows: active = growth percent below 10; inactive = the rest.
Pick one: TRUE (active), FALSE (inactive)

Solved cases below.
Problem: Please let me know the test result on file for O=C(Nc1ccc2c(O)cc(S(=O)(=O)O)cc2c1)c1ccc([N+](=O)[O-])cc1 .
Solution: FALSE

Problem: Call for entry NC(=O)c1cccc(-n2ccc3cc(NC(=O)Nc4ccc(Cl)c(C(F)(F)F)c4)ccc32)n1 :
Solution: FALSE

Problem: Just curious, what result did Nc1ccn(Cc2nnc(CCC(=O)c3nc4ccccc4[nH]3)o2)c(=O)n1 get here?
Solution: FALSE

Problem: Please share the test call associated with CSc1nc2c(c(=O)n1C)CN(Cc1ccccc1)C(=O)CN2 .
Solution: FALSE

Problem: Which outcome did this test record for the compound NNC(=O)Oc1c(Cl)cc(Cl)cc1[N+](=O)[O-] ?
Solution: FALSE

Problem: Tell me the assay call for COc1ccc(C2CC(c3cc(OC)c(OC)c(OC)c3)=NN2)cc1 (configuration not stated) please.
Solution: FALSE

New cases:
Problem: Outcome? O=C(Nc1cccc2c1CCCC2)c1cc2ccccc2cc1O
Solution: FALSE

Problem: Which outcome was entered for the compound Nc1cc(Br)c(-c2nn3c(CCC(=O)c4nc5ccccc5[nH]4)nnc3s2)c(Br)c1 in this test?
Solution: FALSE

Problem: Please state the recorded outcome for this compound: O=C(CCn1cnc2c(cc(-c3ccccc3)n2-c2ccccc2)c1=O)Nc1ccc(F)cc1
Solution: FALSE

Problem: Assay result, entry O=C1CC(SC(=S)C2CCCC2=O)C(=O)N1 (configuration not stated) — outcome?
Solution: FALSE

Problem: Recorded test outcome, item O=C(N/N=C/c1ccc([N+](=O)[O-])cc1)c1ccccc1Nc1cccc(C(F)(F)F)c1
Solution: FALSE

Problem: Kindly provide the recorded test outcome for the following compound: CCc1ccc(C2=NN(c3ccc(S(C)(=O)=O)cc3)C(=O)CC2)cc1
Solution: FALSE

Problem: Please share the test call associated with CC(C)C[C@H](NC(=O)Cn1cccc(CNC(=O)c2ccccc2)c1=O)B(O)O .
Solution: TRUE

Problem: What classification did Nc1ccc(/C=N/Nc2ccnc3c(O)cccc23)c2cccnc12 end up with in this test?
Solution: FALSE

Problem: # fetch the recorded call for CN(C)c1ncnc2c1nnn2C1OC(CO)C(O)C1O (configuration not stated) here
Solution: TRUE

Problem: Record request — test call for CN(C)CCOc1cccc(-c2nc3sccn3c2-c2ccnc(S(C)(=O)=O)n2)c1
Solution: FALSE

Problem: Record request — test call for Cc1ccc(NC(=S)NNC(=S)Nc2ccc(C)cc2)cc1
Solution: FALSE

Problem: Hey, what did the test say about C=CCn1c(SCC(=O)Nc2ccc(C(=O)/C=C/c3ccc(Cl)cc3)cc2)nnc1-c1cc(-c2ccccc2)nc2ccccc12 ?
Solution: FALSE

Problem: Name the outcome recorded for COc1ccc(/C(C#N)=C/c2ccccc2OC)cc1 in the assay.
Solution: FALSE

Problem: For this compound, state the assay outcome: COc1ccccc1/C=N\N/C(N)=N\N=C\c1ccccc1OC
Solution: TRUE

Problem: What did this assay record as the result for CC[C@@H]1NC(=O)[C@H]([C@H](O)[C@H](C)C/C=C/c2ccc(CN3C(=O)CCCC3=O)cc2)N(C)C(=O)[C@H](C(C)C)N(C)C(=O)[C@H](CC(C)C)N(C)C(=O)[C@H](CC(C)C)N(C)C(=O)[C@@H](C)NC(=O)[C@H](C)NC(=O)[C@H](CC(C)C)N(C)C(=O)[C@H](C(C)C)NC(=O)[C@H](CC(C)C)N(C)C(=O)CN(C)C1=O ?
Solution: FALSE

Problem: Record request — test call for C/C=C/C1=CN2C(=O)c3cc(OC4OC(C)C(NC)C(C)(O)C4O)c(C)c(O)c3N=C[C@@H]2C1 (some centres not stated)
Solution: TRUE
